tested on: SB.msgc-1; test: viability at highest tested concentration (MAXR) relative to DMSO; higher = less cytotoxic; conditions: SB.msgc-1 (sporadic gastric cancer)
measure: viability (%)
Answer format: numeric, % implied, no suffix.

[[record]]
compound = "O=C1c2c(O)cc(O)cc2OC(c2ccc(O)c(O)c2)C1O (centres undefined) [Taxifolin] (top concentration 46.0829 µM)"
unittag = "%"
reported = 87.4

[[record]]
compound = "O=C(Nc1nnc(-c2ccco2)o1)c1cc(-c2ccccc2)nc2ccccc12 [STX-0119] (top concentration 46.0829 µM)"
unittag = "%"
reported = 44.1

[[record]]
compound = "C[C@H]1C[C@H]2[C@@H]3CCC4=CC(=O)C=C[C@]4(C)[C@H]3C(=O)C[C@]2(C)[C@@]1(O)C(=O)CO [Meprednisone] (top concentration 46.0829 µM)"
unittag = "%"
reported = 83.2

[[record]]
compound = "COc1cc(C(=O)NC2CCN(C)CC2)ccc1Nc1ncc2c(n1)N(C1CCCC1)CCC(=O)N2C(C)C (top concentration 46.0829 µM)"
unittag = "%"
reported = 28.1


IN: Provide measured viability on SB.msgc-1 for CCCCCCCCCCCCCCCCCCOP(=O)([O-])OC1CC[N+](C)(C)CC1 [Perifosine] (top concentration 23.0415 µM) please.
OUT: 79.6

IN: Please indicate recorded viability of COc1ccc(C(=O)CC(=O)c2ccc(C(C)(C)C)cc2)cc1 [Avobenzone] (top concentration 46.0829 µM) measured with SB.msgc-1.
OUT: 22.9

IN: GET viability | system: SB.msgc-1 | item: C[C@]1(O)CC(C1)C2=NC(=C3[N]2C=CN=C3N)C4=CC5=C(C=C4)C=CC(=N5)C6=CC=CC=C6 (centres undefined) [Linsitinib] (top concentration 46.0829 µM)
OUT: 35.1

IN: Specify viability for O=P1(N(CCCl)CCCl)NCCCO1 (centres undefined) [Cyclophosphamide] (top concentration 46.0829 µM) , system SB.msgc-1.
OUT: 117

IN: GET viability where system = SB.msgc-1 and item = COc1cc(C)c(/C=C/C(C)=C/C=C/C(C)=C/C(=O)O)c(C)c1C [Acitretin] (top concentration 46.0829 µM)
OUT: 92

IN: Recall the reported viability of CCNC(=O)[C@H]1O[C@@H](n2cnc3c(N)nc(NCCc4ccc(CCC(=O)O)cc4)nc32)[C@H](O)[C@@H]1O (top concentration 46.0829 µM) on SB.msgc-1 and write it down.
OUT: 76.4

IN: Write viability of COc1nc(N)nc2c1ncn2[C@@H]1O[C@H](CO)[C@@H](O)[C@@H]1O [Nelarabine] (top concentration 46.0829 µM) ; system used: SB.msgc-1
OUT: 120

IN: Report the value of viability obtained on SB.msgc-1 for COC[C@H](NC(=O)c1cnc(C)s1)C(=O)N[C@@H](COC)C(=O)N[C@@H](Cc1ccccc1)C(=O)[C@@]1(C)CO1 [Oprozomib] (top concentration 46.0829 µM) .
OUT: 1.92

IN: Print SB.msgc-1 viability for COc1ccc2[nH]cc(CCNC(C)=O)c2c1 [Melatonin] (top concentration 46.0829 µM) .
OUT: 34.7

----------
test system: SB.msgc-1; assay: area under the dose-response curve of % viability (trapezoidal, 11 doses) (% viability x log10 concentration); higher = less cytotoxic; conditions: SB.msgc-1 (sporadic gastric cancer)
Counter-ions that a name gives are not always drawn.
measure: area under the dose-response curve
// return just the number, without any unit appended

Consider the following illustrative entries.
[[record]]
compound = "OCCN1CCN(CCCN2c3ccccc3Sc3ccc(C(F)(F)F)cc32)CC1 [Fluphenazine hydrochloride] (top concentration 46.0829 µM)"
reported = 497

[[record]]
compound = "C[C@H](NC(=O)/C(C#N)=C/c1cccc(Br)n1)c1ccccc1 [WP-1066] (top concentration 46.0829 µM)"
reported = 408

[[record]]
compound = "OCCNC1CCCc2c1[nH]c1ccc(-c3ccccc3)cc21 (stereo unspecified) [CASIN] (top concentration 46.0829 µM)"
reported = 500

[[record]]
compound = "CCC(=C/[C@H](C)C/C=C/C(C)=C/[C@@H](C)C(=O)[C@@H](C)[C@H](O)[C@@H](C)C/C(C)=C/C(=O)O)/C=C/[C@@H]1OC(=O)C=C[C@@H]1C [Elactocin] (top concentration 1.84332 µM)"
reported = 583

[[record]]
compound = "CN(C)CCc1c[nH]c2ccc(C[S+](=O)([O-])N3CCCC3)cc12 [Almotriptan] (top concentration 46.0829 µM)"
reported = 560


Now turn to the next compound.
IN: Give area under the dose-response curve for the following compound: CNC(=O)c1ccc(-c2cnc3ncc(Cc4ccc5ncccc5c4)n3n2)cc1F (top concentration 46.0829 µM)
OUT: 479

----------
# area under the dose-response curve per entry
test system: SB.mhdgc-1; assay: area under the dose-response curve of % viability (trapezoidal, 11 doses) (% viability x log10 concentration); higher = less cytotoxic; details: SB.mhdgc-1 (hereditary c.1380delA CDH1 gastric cancer)
Counter-ions that a name gives are not always drawn.
// no unit string in output, number only

Recorded area under the dose-response curve, per entry:
[[record]]
compound = "CCOC(=O)Nc1ccc(NCc2ccc(F)cc2)cc1N [Retigabine] (top concentration 46.0829 µM)"
reported = 490

[[record]]
compound = "C[C@@H](Oc1ccc2[nH]nc(/C=C/c3cnn(CCO)c3)c2c1)c1c(Cl)cncc1Cl (top concentration 46.0829 µM)"
reported = 385

[[record]]
compound = "Nc1cccc2c1CN(C1CCC(=O)NC1=O)C2=O (stereo unspecified) [Lenalidomide] (top concentration 92.1659 µM)"
reported = 478

[[record]]
compound = "CN(C)CC[C@H](c1ccc(Cl)cc1)c1ccccn1 [Chlorphenamine maleate] (top concentration 46.0829 µM)"
reported = 464

[[record]]
compound = "CC\\12CCC(=O)\\C=C1CCC3C2CCC4(C)C3CCC4(O)C#C (stereo unspecified) [Ethisterone] (top concentration 46.0829 µM)"
reported = 444


Shift focus to the following entry.
IN: Fill in area under the dose-response curve for record CCCCCCOC(=O)/N=C(/N)c1ccc(NCc2nc3cc(C(=O)N(CCC(=O)OCC)c4ccccn4)ccc3n2C)cc1 [BIBR 1048] (top concentration 46.0829 µM)
OUT: 459

----------
test system: SB.msgc-1; test: area under the dose-response curve of % viability (trapezoidal, 11 doses) (% viability x log10 concentration); higher = less cytotoxic; settings: SB.msgc-1 (sporadic gastric cancer)
Counter-ions that a name gives are not always drawn.
measure: area under the dose-response curve

Some compounds with recorded area under the dose-response curve:
[[record]]
compound = "CCc1cccc2c3c([nH]c12)C(CC)(CC(=O)O)OCC3 (configuration not stated) [Etodolac] (top concentration 46.0829 µM)"
reported = 462

[[record]]
compound = "CN1CCC(CNc2ccc3ncc(-c4cccc(OC(F)(F)F)c4)n3n2)CC1 [SGI-1776] (top concentration 46.0829 µM)"
reported = 493

[[record]]
compound = "CCCc1nc2c(C)cc(-c3nc4ccccc4n3C)cc2n1Cc1ccc(-c2ccccc2C(=O)O)cc1 [Telmisartan] (top concentration 46.0829 µM)"
reported = 481

[[record]]
compound = "COc1cc2ncnc(Nc3ccc(F)c(Cl)c3)c2cc1OCCCN1CCOCC1 [Gefitinib] (top concentration 92.1659 µM)"
reported = 314

[[record]]
compound = "CCC[C@H](Nc1nc(-c2ccc(NC(=O)NCC)c(OC)c2)ncc1C)c1cccnc1 [Lexibulin hydrochloride] (top concentration 46.0829 µM)"
reported = 289


Turning now to a further record.
IN: Quote SB.msgc-1 area under the dose-response curve for entry CCC1=C[C@@H]2CN(C1)Cc1c([nH]c3ccccc13)[C@@](C(=O)OC)(c1cc3c(cc1OC)N(C)[C@H]1[C@@](O)(C(=O)OC)[C@H](OC(C)=O)[C@]4(CC)C=CCN5CC[C@]31[C@@H]54)C2 [Vinorelbine] (top concentration 46.0829 µM) .
OUT: 347

----------
Listed compounds paired with reported area under the dose-response curve
tested on: SB.msgc-1; experiment: area under the dose-response curve of % viability (trapezoidal, 11 doses) (% viability x log10 concentration); higher = less cytotoxic; details: SB.msgc-1 (sporadic gastric cancer)
Give only the figure.

[[record]]
compound = "CC(C)n1c(/C=C/[C@H](O)C[C@H](O)CC(=O)[O-])c(-c2ccc(F)cc2)c2ccccc21 [Fluvastatin] (top concentration 46.0829 µM)"
measure = "area under the dose-response curve"
reported = 504

[[record]]
compound = "Nc1nc(N)c2nc(-c3cccc(O)c3)c(-c3cccc(O)c3)nc2n1 (top concentration 46.0829 µM)"
measure = "area under the dose-response curve"
reported = 480

[[record]]
compound = "CN1CC(=O)N2[C@H](c3ccc4c(c3)OCO4)c3[nH]c4ccccc4c3C[C@@H]2C1=O [Tadalafil] (top concentration 46.0829 µM)"
measure = "area under the dose-response curve"
reported = 280


IN: # return recorded area under the dose-response curve for entry CC(O)(C#Cc1ccc2c(c1)N(c1nc(N)ncc1Cl)CC2)c1nccs1 (stereo unspecified) (top concentration 46.0829 µM)
OUT: 486

IN: Look up area under the dose-response curve of CN1CCN(CC1)C2=C3OCN(C)N4\C=C(C(O)=O)/C(=O)C(=C34)C=C2F [Marbofloxacin] (top concentration 46.0829 µM) and report it.
OUT: 550

IN: Recall and state the measured area under the dose-response curve for NC/1=N/C(=O)N(/C=C1F)[C@H]2CS[C@H](CO)O2 [Emtricitabine] (top concentration 46.0829 µM) .
OUT: 520
